Biological target: βTrCP (Homo sapiens, UniProt Q9Y297)
Sequence (Q9Y297 whole entry, one chain of several): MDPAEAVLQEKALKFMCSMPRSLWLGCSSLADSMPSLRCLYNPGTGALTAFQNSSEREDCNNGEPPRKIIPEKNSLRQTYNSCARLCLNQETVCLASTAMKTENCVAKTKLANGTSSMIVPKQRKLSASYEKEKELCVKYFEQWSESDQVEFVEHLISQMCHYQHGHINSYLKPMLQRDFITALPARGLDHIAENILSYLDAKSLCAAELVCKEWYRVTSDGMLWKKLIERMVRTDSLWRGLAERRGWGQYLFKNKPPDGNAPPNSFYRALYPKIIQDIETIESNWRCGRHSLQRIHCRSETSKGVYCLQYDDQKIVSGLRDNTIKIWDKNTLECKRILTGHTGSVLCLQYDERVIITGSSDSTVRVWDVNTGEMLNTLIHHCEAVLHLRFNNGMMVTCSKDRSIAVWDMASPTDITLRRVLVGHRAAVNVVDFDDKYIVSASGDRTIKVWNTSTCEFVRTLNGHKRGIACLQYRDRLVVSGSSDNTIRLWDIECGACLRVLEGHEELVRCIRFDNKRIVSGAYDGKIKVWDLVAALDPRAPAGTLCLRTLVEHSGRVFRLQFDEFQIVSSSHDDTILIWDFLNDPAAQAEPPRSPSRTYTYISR
Assay: Fluorescence polarisation (FP) binding assay with fluorescein-tagged IκB peptide
Conditions: FP Assay IC50/μM, Tables 1, 3, 7, 8; 10 nM fluorescein-tagged IκB peptide
measuredEndpoint: IC50 (µM)
Output spec: scalar in µM, unitless text.

Input line: Tell me the measured IC50 of H-DEGFFE-NH2 [DEGFFE-NH2] , please.
Output line: 43.6

====

Entries and their inhibition at 100 µM values follow.
Molecular target: Skp2 (Homo sapiens, UniProt Q13309)
Sequence (Q13309 whole entry, species assumed): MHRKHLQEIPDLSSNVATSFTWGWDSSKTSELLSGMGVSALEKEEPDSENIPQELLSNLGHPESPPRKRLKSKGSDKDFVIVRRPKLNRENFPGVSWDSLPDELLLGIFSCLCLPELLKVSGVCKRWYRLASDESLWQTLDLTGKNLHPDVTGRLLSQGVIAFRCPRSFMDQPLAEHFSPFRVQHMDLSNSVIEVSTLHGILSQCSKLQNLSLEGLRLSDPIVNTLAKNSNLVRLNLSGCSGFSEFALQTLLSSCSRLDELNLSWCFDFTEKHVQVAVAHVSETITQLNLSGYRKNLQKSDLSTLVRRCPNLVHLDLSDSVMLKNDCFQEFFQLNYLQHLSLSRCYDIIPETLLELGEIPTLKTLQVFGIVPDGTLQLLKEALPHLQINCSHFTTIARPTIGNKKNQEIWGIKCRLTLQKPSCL
Sequence (P63208 whole entry partner, species assumed): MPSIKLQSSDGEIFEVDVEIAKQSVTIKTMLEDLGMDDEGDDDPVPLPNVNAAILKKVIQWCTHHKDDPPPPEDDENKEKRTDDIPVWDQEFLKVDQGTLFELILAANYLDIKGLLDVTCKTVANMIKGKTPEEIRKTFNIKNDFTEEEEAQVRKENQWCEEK
Sequence (Q13616 whole entry partner, species assumed): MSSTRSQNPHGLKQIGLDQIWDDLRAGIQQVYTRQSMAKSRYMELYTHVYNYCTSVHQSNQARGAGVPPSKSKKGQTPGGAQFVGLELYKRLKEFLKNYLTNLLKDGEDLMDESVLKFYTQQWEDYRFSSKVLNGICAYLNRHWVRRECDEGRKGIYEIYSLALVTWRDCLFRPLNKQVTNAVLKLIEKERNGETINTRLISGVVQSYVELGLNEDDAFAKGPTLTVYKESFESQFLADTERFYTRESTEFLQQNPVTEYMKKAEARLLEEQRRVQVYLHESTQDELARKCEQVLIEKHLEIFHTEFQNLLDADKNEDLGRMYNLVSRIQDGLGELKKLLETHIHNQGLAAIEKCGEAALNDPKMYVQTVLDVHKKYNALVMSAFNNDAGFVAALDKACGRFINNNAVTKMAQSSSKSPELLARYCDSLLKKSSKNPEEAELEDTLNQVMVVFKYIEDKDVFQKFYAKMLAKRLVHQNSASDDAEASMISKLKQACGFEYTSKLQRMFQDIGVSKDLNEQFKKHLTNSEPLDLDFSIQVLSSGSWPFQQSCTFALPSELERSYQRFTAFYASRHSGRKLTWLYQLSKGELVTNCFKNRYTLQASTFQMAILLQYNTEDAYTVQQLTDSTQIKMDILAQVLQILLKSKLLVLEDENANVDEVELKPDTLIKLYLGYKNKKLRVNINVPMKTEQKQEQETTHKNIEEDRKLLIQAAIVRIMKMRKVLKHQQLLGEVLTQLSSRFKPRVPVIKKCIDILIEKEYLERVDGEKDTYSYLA
Sequence (P62877 whole entry partner, species assumed): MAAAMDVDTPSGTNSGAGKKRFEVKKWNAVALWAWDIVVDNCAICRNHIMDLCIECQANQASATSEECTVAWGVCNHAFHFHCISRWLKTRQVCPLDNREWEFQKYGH
Experiment: Selectivity assay vs other E3s: Skp2
Type: biochemical
Details: 100 μM, value in brackets; read-out: % Inhibition Skp2 @ (100 μM)
Starred links: 1 amine or outer side, 2 acyl side, 3 side chain; linkers in the order of their positions; H or OH if unused. Non-standard residues stand in square brackets, D forms with d. Residues, ends and D or L forms follow the SMILES beside them. *: point of attachment. Phe(4-NO2) = N[C@@H](Cc1ccc([N+](=O)[O-])cc1)C(=O)O; Phe(3-Cl) = N[C@@H](Cc1cccc(Cl)c1)C(=O)O; Phe(3-F) = N[C@@H](Cc1cccc(F)c1)C(=O)O; NMeE = CN[C@@H](CCC(=O)O)C(=O)O; X2 = COc1ccc(S(=O)(=O)*)cc1OC; Suc = O=C(CCC(=O)[*:2])[*:1]; Tos = Cc1ccc(S(=O)(=O)*)cc1; Propionyl = CCC(=O)*
Note: unit % is implicit; provide only the numeric part.

compound	experimentalTarget	inhibition at 100 µM / %
Cc1ccc(S(=O)(=O)N[C@H](CC(=O)O)C(=O)N[C@@H](CCC(=O)O)C(=O)NCC(=O)N[C@@H](Cc2cccc(Cl)c2)C(=O)N[C@@H](Cc2c[nH]c3ccccc23)C(=O)N[C@@H](CCC(=O)O)C(N)=O)cc1 [UBP034, Ts-dEGF(3Cl)WE-NH2] (Tos-[dD]EG[Phe(3-Cl)]WE-NH2)	Skp2 (Homo sapiens, UniProt Q13309)	0

Input line: Provide the documented inhibition at 100 µM with Skp2 (Homo sapiens, UniProt Q13309) as the system for Cc1ccc(S(=O)(=O)N[C@H](CC(=O)O)C(=O)N[C@@H](CCC(=O)O)C(=O)NCC(=O)N[C@@H](Cc2cccc(Cl)c2)C(=O)N[C@@H](Cc2c[nH]c3ccccc23)C(=O)N(C)[C@@H](CCC(=O)O)C(N)=O)cc1 [UBP033, Ts-dEGF(3Cl)WE(Me)-NH2] (Tos-[dD]EG[Phe(3-Cl)]W[NMeE]-NH2)
Output line: 10

Input line: Hello, I am looking for reported inhibition at 100 µM with Skp2 (Homo sapiens, UniProt Q13309) for CCC(=O)N[C@H](CC(=O)O)C(=O)N[C@@H](CCC(=O)O)C(=O)NCC(=O)N[C@@H](Cc1cccc(F)c1)C(=O)N[C@@H](Cc1c[nH]c2ccccc12)C(=O)N[C@@H](CCC(=O)O)C(N)=O [UBP019, Et(CO)-dEGF(3F)WE-NH2] (Propionyl-[dD]EG[Phe(3-F)]WE-NH2) . Could you help?
Output line: 10

Input line: Find inhibition at 100 µM (Skp2 (Homo sapiens, UniProt Q13309)) for the entry Cc1ccc(S(=O)(=O)N[C@H](CC(=O)O)C(=O)N[C@@H](CCC(=O)O)C(=O)NCC(=O)N[C@@H](Cc2cccc(F)c2)C(=O)N[C@@H](Cc2c[nH]c3ccccc23)C(=O)N[C@@H](CCC(=O)O)C(N)=O)cc1 [Ts-dEGF(3F)WE-NH2] (Tos-[dD]EG[Phe(3-F)]WE-NH2)
Output line: 25

Input line: Please state recorded inhibition at 100 µM (tested on Skp2 (Homo sapiens, UniProt Q13309)) of COc1ccc(S(=O)(=O)N[C@H](CC(=O)O)C(=O)N[C@@H](CCC(=O)O)C(=O)NCC(=O)N[C@@H](Cc2cccc(F)c2)C(=O)N[C@@H](Cc2c[nH]c3ccccc23)C(=O)N[C@@H](CCC(=O)O)C(N)=O)cc1OC [UBP029, 3,4-(MeO)2-PhSO2-dEGF(3F)WE-NH2] (X2-[dD]EG[Phe(3-F)]WE-NH2)
Output line: 19

Input line: // map NC(=O)[C@H](CCC(=O)O)NC(=O)[C@H](Cc1ccccc1)NC(=O)[C@H](Cc1ccccc1)NC(=O)CNC(=O)[C@H](CCC(=O)O)NC(=O)CCC(=O)O [UBP002, Suc-EGFFE-NH2] (Suc-EGFFE-NH2) to recorded inhibition at 100 µM (system: Skp2 (Homo sapiens, UniProt Q13309))
Output line: 0

Input line: Quick check: inhibition at 100 µM on Skp2 (Homo sapiens, UniProt Q13309), item NC(=O)[C@H](CCC(=O)O)NC(=O)[C@H](Cc1ccc([N+](=O)[O-])cc1)NC(=O)[C@H](Cc1cccc(F)c1)NC(=O)CNC(=O)[C@H](CCC(=O)O)NC(=O)CCC(=O)O [UBP004, Suc-EGF(3F)F(4NO2)E-NH2] (Suc-EG[Phe(3-F)][Phe(4-NO2)]E-NH2) ?
Output line: 3
